Molecular target: Nuclear receptor coactivator 2 (Homo sapiens) (UniProt Q15596)
Sequence (Q15596 whole entry, looked up): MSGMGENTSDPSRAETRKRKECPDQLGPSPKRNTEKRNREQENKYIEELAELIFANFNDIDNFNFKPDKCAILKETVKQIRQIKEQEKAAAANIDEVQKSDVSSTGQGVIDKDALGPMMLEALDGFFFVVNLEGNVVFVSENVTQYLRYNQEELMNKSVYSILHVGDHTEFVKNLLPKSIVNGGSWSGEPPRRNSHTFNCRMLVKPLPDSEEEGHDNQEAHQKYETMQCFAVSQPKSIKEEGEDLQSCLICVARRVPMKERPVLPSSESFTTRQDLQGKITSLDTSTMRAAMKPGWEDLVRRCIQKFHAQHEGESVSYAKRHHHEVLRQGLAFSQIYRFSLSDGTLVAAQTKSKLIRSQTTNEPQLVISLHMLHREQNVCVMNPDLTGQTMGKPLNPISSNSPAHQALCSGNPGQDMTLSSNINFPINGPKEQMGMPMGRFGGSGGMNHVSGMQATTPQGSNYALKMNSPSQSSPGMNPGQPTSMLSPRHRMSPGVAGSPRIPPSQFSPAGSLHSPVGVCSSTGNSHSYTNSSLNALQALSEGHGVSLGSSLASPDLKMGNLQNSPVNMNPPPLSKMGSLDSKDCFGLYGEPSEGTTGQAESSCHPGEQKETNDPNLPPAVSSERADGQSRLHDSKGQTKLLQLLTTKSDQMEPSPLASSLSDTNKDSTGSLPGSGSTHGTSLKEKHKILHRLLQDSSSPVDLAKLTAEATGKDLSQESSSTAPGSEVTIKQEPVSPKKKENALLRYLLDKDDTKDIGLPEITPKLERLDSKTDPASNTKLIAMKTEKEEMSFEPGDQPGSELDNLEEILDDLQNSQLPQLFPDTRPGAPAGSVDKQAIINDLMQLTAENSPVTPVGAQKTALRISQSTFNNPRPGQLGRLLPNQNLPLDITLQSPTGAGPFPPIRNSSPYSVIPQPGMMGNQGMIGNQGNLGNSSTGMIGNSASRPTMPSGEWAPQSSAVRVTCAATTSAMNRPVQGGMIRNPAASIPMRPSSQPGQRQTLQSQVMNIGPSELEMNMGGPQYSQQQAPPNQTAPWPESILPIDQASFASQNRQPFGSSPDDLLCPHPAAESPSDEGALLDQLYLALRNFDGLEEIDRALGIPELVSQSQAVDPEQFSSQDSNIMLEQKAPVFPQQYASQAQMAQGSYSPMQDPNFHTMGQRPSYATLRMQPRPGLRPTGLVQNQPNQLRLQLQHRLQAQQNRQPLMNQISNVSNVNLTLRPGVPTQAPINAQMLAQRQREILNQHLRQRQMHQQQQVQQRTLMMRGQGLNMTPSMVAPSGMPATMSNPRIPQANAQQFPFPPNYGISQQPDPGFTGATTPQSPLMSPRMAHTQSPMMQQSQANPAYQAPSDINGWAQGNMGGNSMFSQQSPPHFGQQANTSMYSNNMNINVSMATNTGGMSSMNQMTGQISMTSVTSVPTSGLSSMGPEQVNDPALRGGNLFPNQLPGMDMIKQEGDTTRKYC
Assay: SRC2 coactivator transcriptional activity inhibitors, confirmation, cell-based, luminescence, HEK293, triplicate (AID 652008);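 note: 0% = DMSO-treated cells and 100% = Gossypol at 36 µM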
Conditions: HEK293 GAL4-SRC2 luciferase reporter, at 8.9 µM
Calls of active or inactive are those of the source.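 Rule for the calls: active = mean inhibition above 46.5%, the solvent-only control mean plus 3 SD; inactive = the rest.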
Labels: Yes (active), No (inactive)

{"columns": ["Compound", "Group Label"],
 "data": [
  ["CCOC(=O)C1CCN(S(=O)(=O)c2ccc(NC(=O)OC)cc2)CC1", "No"],
  ["CC(C)Cc1nnc(NC(=O)CCC(=O)N2CCN(Cc3ccccc3)CC2)s1", "No"],
  ["CC(=O)Nc1ccc(NC(=O)c2nc(S(=O)(=O)Cc3cccc(C)c3)ncc2Cl)cc1", "Yes"],
  ["O=C(O)CCCCCN1C(=O)CSC1=S", "No"],
  ["O=C(N/N=C/c1cc(Br)ccc1O)C(c1ccncc1)N1CCOCC1 (stereo not given)", "No"],
  ["COC(=O)c1cc(C(=O)OC)cc(S(=O)(=O)Nc2ccc(Cl)c(N)c2)c1", "No"],
  ["CC(OC(=O)CN1C(=O)NC2(CCCC2)C1=O)c1ccc(F)cc1 (stereo not given)", "No"],
  ["CCCCCCCC/C=C\\CCCCCCCC(=O)NCCc1ccc(O)c(O)c1", "No"],
  ["CCOc1cc(NC(=S)NCc2ccco2)c(OCC)cc1NC(=O)CC", "No"],
  ["O=C(CCl)Nc1cccc(S(=O)(=O)NC2=NCCC2)c1", "No"],
  ["O=C1/C(=C/c2ccncc2)CCC/C1=C\\c1ccncc1", "Yes"],
  ["C=CCn1c(C)cc(C2=NNC(=NCC)SC2)c1C", "Yes"],
  ["CCc1ccc(C=C2SC(=S)N(CCCC(=O)Nc3ccc(C(=O)O)cc3)C2=O)cc1", "No"],
  ["O=c1cc(-c2ccc(O)cc2)oc2ccc3ccccc3c12", "Yes"],
  ["CC(C)c1ccc(/C=C2\\SC(=S)N(CCC(=O)N3CCCCC3CCO)C2=O)cc1 (stereo not given)", "Yes"],
  ["CC1CCC/C=C/C(=O)c2c(O)cc(O)cc2CC(=O)O1 (stereo not given)", "No"],
  ["Cc1nc2cc(-c3ccccc3)sc2c(=O)n1N", "No"],
  ["C=CS(=O)(=O)N(Cc1ccc(C)cc1)[C@@H](CO)C(=O)OC", "Yes"],
  ["CC(O)CC(=O)OC[C@]12CC[C@H]3[C@@](C)(CC[C@H]4C(C)(C)CCC[C@]34C)[C@@H]1CC(C1=CC(=O)OC1O)O2 (stereo not given in full)", "No"],
  ["CCN(CC(=O)Nc1cc(Cl)ccc1C)C(=O)C1CCN(c2ncnc3sc(C)c(C)c23)CC1", "No"],
  ["COc1cccc(N2CCN(c3ncnc4c3[nH]c3ccc(F)cc34)CC2C)c1 (stereo not given)", "Yes"],
  ["O=C(CCl)N(C1CCCC1)C1CCS(=O)(=O)C1 (stereo not given)", "Yes"],
  ["CCNC(=O)NC(=O)C(C)OC(=O)CCCSc1nc2ccccc2s1 (stereo not given)", "No"],
  ["COc1ccc(-c2cn[nH]c2-c2ccc(OC)cc2O)cc1", "No"],
  ["COCCN=C1Sc2nc3c(C)cccc3cc2CN1Cc1ccco1", "No"],
  ["COc1ccc(S(=O)(=O)N2c3ccc(F)cc3CCC2C)cc1 (stereo not given)", "No"],
  ["CCCN(CC)c1ncnc2[nH]ncc12", "No"],
  ["COc1ccc(-n2c(-c3ccccc3)c[n+]3c2CCC3)cc1", "No"],
  ["Cc1ccc(C(=O)O/N=C(\\N)c2ccccn2)c(Cl)c1", "Yes"],
  ["CC(C)(C)C(=O)/C(=C/c1ccc(Cl)cc1)n1cncn1", "Yes"],
  ["Cc1ccc(C(=O)O/N=C(\\N)c2ccccn2)cc1C", "No"],
  ["CCOC(=O)c1ccc(NC(=O)Cn2cnc3cc(C)c(C)cc32)cc1", "No"],
  ["CC(Oc1ccc(Cl)cc1Cl)C(=O)NCCCn1ccnc1 (stereo not given)", "No"],
  ["CC(=O)c1cccc(-c2csc3ncnc(Sc4nnnn4C)c23)c1", "No"],
  ["CC(C)c1ccc(-n2c(-c3ccccc3)c[n+]3c2CCc2ccccc2-3)cc1", "Yes"],
  ["COc1ccc(S(=O)(=O)N2CCOCC2)cc1NC(=O)CCNC(=O)c1ccc(Br)cc1", "No"],
  ["O=[N+]([O-])c1cc(Br)c(Nc2ccccc2)c([N+](=O)[O-])c1", "No"],
  ["CCOC(=O)C1CCN(C(=O)CCc2c(C)nc3cc(-c4ccccc4)nn3c2C)CC1", "Yes"],
  ["CC1CCCC(C)N1C(=O)c1cccc2c1-c1ccccc1/C2=N/O (stereo not given)", "No"],
  ["COc1ccc(COC(=O)C2=C(C)NC(=O)NC2c2ccc(OC)cc2)cc1 (stereo not given)", "No"],
  ["S=c1[nH]nc(C2CCCCC2)n1/N=C/c1ccncc1", "Yes"],
  ["O=C(COc1ccc2c(c1)CCC2)Nc1ccccn1", "No"],
  ["CC(C)(C)c1nn(-c2ccccc2)c2[nH]c(=O)c(CNc3ccc4c(c3)OCCO4)cc12", "No"],
  ["Cc1ccc(-n2c(-c3ccc(Cl)cc3)c[n+]3c2CCC3)cc1", "No"],
  ["O=C(CCCN1C(=O)/C(=C/c2cccs2)SC1=S)Nc1ccccn1", "No"]
]}

###

Catalogue of inhibition readings, one per entry.
Tested on: transactivating tegument protein VP16 (Human herpesvirus 1)
Test: VP16 transactivation reporter inhibitors, counter-screen for SRC2 inhibitor project, cell-based, luminescence, single concentration (AID 652007)
Conditions: cell-based VP16 transactivation luciferase reporter, at 8.9 µM, active compounds read high

{"columns": ["Compound", "Target Entity", "inhibition, %"],
 "data": [
  ["O=C(CCl)N1c2ccccc2CCc2ccccc21", "transactivating tegument protein VP16 (Human herpesvirus 1)", 29.1],
  ["O=C(N/N=C/c1coc2ccc(Cl)cc2c1=O)c1cc(O)cc(O)c1", "transactivating tegument protein VP16 (Human herpesvirus 1)", 23.4],
  ["CCc1ccc(/C=C2\\SC(=S)N(CCCC(=O)NCCCN3CCOCC3)C2=O)cc1", "transactivating tegument protein VP16 (Human herpesvirus 1)", 82.6],
  ["COc1cccc(C(NC(C)=O)c2nc(-c3cccc(C#N)c3)cs2)c1 (stereo unspecified)", "transactivating tegument protein VP16 (Human herpesvirus 1)", -10.7],
  ["Cc1ccc(C)c(NS(=O)(=O)c2cc(C(=O)NCCSC3CCCCC3)ccc2C)c1", "transactivating tegument protein VP16 (Human herpesvirus 1)", -17.6],
  ["COc1ccc(C(=O)c2ccc(CC(=O)O)s2)cc1", "transactivating tegument protein VP16 (Human herpesvirus 1)", 29.4]
]}

###

Target: Nuclear receptor coactivator 1 (Homo sapiens)
Assay: SRC1 coactivator transcriptional activity inhibitors, confirmation, cell-based, luminescence, quadruplicate (AID 588820);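 note: 0% = DMSO wells and 100% = gossypol 36 µM treated wells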
Conditions: HEK293 GAL4-SRC1 luciferase reporter, at 3.6 µM
Calls of active or inactive are those of the source.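 Rule for the calls: active = mean inhibition above 46.68%, the untreated control wells mean plus 3 SD; inactive = the rest.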
Possible outcomes: active, inactive

{"columns": ["Molecule", "Group Label"],
 "data": [
  ["COc1ccccc1NS(=O)(=O)c1cccc(C(=O)NC2CCN(Cc3ccccc3)CC2)c1", "inactive"],
  ["N#Cc1c(N)nc2c(c1-c1ccc(F)cc1)CCC2", "inactive"],
  ["COC(=O)C1CCCCN1C(=O)c1cc(COc2cccc3cnccc23)on1 (stereo not given)", "inactive"],
  ["Cc1sc2ncnc(NCC3COc4ccccc4O3)c2c1C (stereo not given)", "inactive"],
  ["Cc1c(Cl)c([N+](=O)[O-])nn1Cc1ccc(C(=O)N/N=C\\c2cc(Cl)ccc2O)o1", "active"],
  ["COc1cccc(CNC(=O)C2CCCN(S(C)(=O)=O)C2)c1 (stereo not given)", "inactive"],
  ["OC[C@@H]1CN(Cc2ccc(-c3ccccc3)cc2)C[C@H](n2cnc3c(NCc4ccncc4)ncnc32)O1", "inactive"],
  ["CCCN(CCC)C1=CC(=[N+]2CCCC2)CC(C)(C)C1", "inactive"],
  ["COc1ccc(S(=O)(=O)N2CCOCC2)cc1NC(=O)CCNC(=O)c1ccc(Br)cc1", "active"],
  ["Cc1c(-c2ccccc2)oc2c(C(=O)N3CCN(c4ccc([N+](=O)[O-])cc4)CC3)cccc2c1=O", "inactive"]
]}

###

Target: Nuclear receptor subfamily 5 group A member 2 (Homo sapiens) (UniProt O00482)
Sequence (O00482 whole entry, looked up): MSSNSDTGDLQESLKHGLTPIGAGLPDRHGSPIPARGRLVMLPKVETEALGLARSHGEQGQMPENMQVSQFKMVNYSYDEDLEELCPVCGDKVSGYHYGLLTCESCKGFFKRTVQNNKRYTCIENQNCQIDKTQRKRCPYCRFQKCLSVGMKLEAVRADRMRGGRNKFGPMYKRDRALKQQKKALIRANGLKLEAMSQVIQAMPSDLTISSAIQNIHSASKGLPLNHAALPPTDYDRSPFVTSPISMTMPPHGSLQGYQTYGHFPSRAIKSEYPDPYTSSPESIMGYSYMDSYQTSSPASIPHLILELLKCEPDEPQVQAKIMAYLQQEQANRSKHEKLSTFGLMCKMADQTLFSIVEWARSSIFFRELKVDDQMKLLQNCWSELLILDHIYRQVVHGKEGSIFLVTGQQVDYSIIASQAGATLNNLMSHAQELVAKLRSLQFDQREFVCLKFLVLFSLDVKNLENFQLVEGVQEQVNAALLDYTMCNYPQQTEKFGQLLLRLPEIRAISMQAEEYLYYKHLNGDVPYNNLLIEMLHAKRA
Experiment: LRH-1 (NR5A2) inverse agonists, retest, confirmation, cell-based, luminescence (AID 651613);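 note: HEK293T cells co-transfected with LRH-1 and StAR promoter luciferase reporter; 0% = vehicle wells and 100% = parental cells lacking receptor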
Conditions: cell-based LRH-1 luciferase reporter, inverse agonism; at 3.6 µM; active compounds read high
Endpoint: inhibition (%)

{"columns": ["Compound", "Units Of Measure", "Test Value"],
 "data": [
  ["COc1ccc(N2CCN(C(=O)CN3C(=O)NC4(CCCCCC4)C3=O)CC2)cc1", "%", 46.6],
  ["O=C(Cc1c(Cl)cccc1Cl)Nc1ccncc1", "%", 53.1],
  ["COc1cc2c(cc1OC)CN(C(=O)CN1CCN(S(=O)(=O)c3ccc(C)c(C)c3)CC1)CC2", "%", 49.3],
  ["O=[N+]([O-])c1ccc(N2CCN(Cc3ccccc3)CC2)c2c1no[n+]2[O-]", "%", 57.3],
  ["CCC1(O)C(=O)OCc2c1cc1n(c2=O)Cc2cc3c(N)cccc3nc2-1 (configuration not stated)", "%", 104],
  ["NC(=O)c1oc2ccccc2c1NC(=O)c1ccc([N+](=O)[O-])o1", "%", 67.6],
  ["Cc1cccc(-n2ncc3c2CCCC3NC(=O)c2ccncc2)c1C (configuration not stated)", "%", 54.5],
  ["O=C(CSc1n[nH]c(-c2ccccc2)n1)Nc1ccc(F)cc1F", "%", 58.4],
  ["Cc1cccc(C(=O)N[C@H](C(=O)Nc2ncc(C)s2)C(C)C)c1", "%", 58.7],
  ["O=C(NCCc1ccccc1F)c1ccc2c(c1)OCCO2", "%", 55.3],
  ["CCCC(=O)NC(c1ccc(C)cc1)c1ccc2cccnc2c1O (configuration not stated)", "%", 103],
  ["Cc1ccc(N(CCC#N)C(=O)CCl)cc1C", "%", 58.5],
  ["N#CC(c1cccc(Cl)c1)c1ccc2c(C(F)(F)F)cc(C(F)(F)F)nc2n1 (configuration not stated)", "%", 107],
  ["O=C(NCc1cccnc1)/C(=C\\c1ccc(-c2ccc(Br)cc2)o1)S(=O)(=O)c1ccccc1", "%", 92.3],
  ["CCN1C(=O)c2cccc3c(NC(=O)c4cccc(N5C(=O)CCC5=O)c4)ccc1c23", "%", 51.3],
  ["Cc1ccc(S(=O)(=O)Nc2ccc3c(c2)n(C)c(=O)n3C)cc1", "%", 48.8],
  ["O=C(Nc1ccc(Oc2ccccc2)cc1)c1csc([C@H]2C[C@H](O)[C@@H](CO)O2)n1", "%", 56.6],
  ["O=C1C(=O)c2cccnc2-c2ncccc21", "%", 110],
  ["CC(=O)CSc1nc(N)c(C#N)c(-c2cccs2)c1C#N", "%", 57.7],
  ["O=C(Nc1ccc(S(=O)(=O)Nc2ccccc2)cc1)c1ccc(CN2CCOCC2)cc1", "%", 56.4],
  ["Cc1nnsc1C(=O)NC1CCCc2c1cnn2-c1ccc(F)cc1F (configuration not stated)", "%", 59.4],
  ["COc1ccc([C@@]23Oc4cc(OC)cc(OC)c4[C@]2(O)[C@H](O)[C@H](C(=O)N(C)C)[C@H]3c2ccccc2)cc1", "%", 111]
]}

Data provenance is PubChem BioAssay.
